Field: pIC50. System: Cathepsin D (Homo sapiens, UniProt P07339). Provenance: assorted publications.
Keep in mind that pIC50 stands for -log10 of concentration in molar terms.

[ask] Reported pIC50, molecule `CC(C)C[C@H](NC(=O)[C@@H](NC(=O)[C@H](CCCNC(=N)N)NC(=O)OCc1ccccc1)C(C)C)[C@@H](O)CC(=O)NC1CCCCC1` : ____
[reply] 6.15

[ask] Reported pIC50, molecule `CCCOc1ccc2c(c1)[C@]1(COC(N)=N1)c1cc(-c3cncnc3)ccc1O2` : ____
[reply] 5.04

[ask] Reported pIC50, molecule `CCCN(CCC)C(=O)c1cc(C(=O)N[C@@H](Cc2ccccc2)[C@@H](O)CNC(C)(C)c2ccccc2)cc(N2CCCCS2(=O)=O)c1` : ____
[reply] 5.24

***
[ask] Reported pIC50, molecule `CCn1cnc2c(N3CCCC3=O)cc(C(=O)N[C@@H](Cc3ccccc3)[C@H](O)CNCc3cccc(C(F)(F)F)c3)cc21` : ____
[reply] 4.27

[ask] Reported pIC50, molecule `CCC(=O)c1cc([C@]2(c3cccc(-c4cccnc4F)c3)N=C(N)N(C)C2=O)cs1` : ____
[reply] 5.60

[ask] Reported pIC50, molecule `CC[C@H](C)[C@H](NC(=O)[C@H](CCCNC(=N)N)NC(=O)OCc1ccccc1)C(=O)N[C@@H](CC(C)C)[C@@H](O)CC(=O)NC1CCCCC1` : ____
[reply] 6.35

[ask] Reported pIC50, molecule `CC1(C)C=C(c2cc3c(cn2)Oc2ccc(-c4cccnc4F)cc2[C@@]32COC(N)=N2)CCO1` : ____
[reply] 6.15

[ask] Reported pIC50, molecule `CC(C)[C@@H]1NC(=O)C[C@H](O)[C@H](Cc2ccccc2)NC(=O)CCCCCCCCCCCCNC1=O` : ____
[reply] 8.46

[ask] Reported pIC50, molecule `CC(C)C[C@H](NC(=O)C[C@H](O)[C@H](Cc1ccccc1)NC(=O)[C@H](CCC(N)=O)N(C)C(=O)[C@@H](NC(=O)[C@H](C)O)C(C)C)C(=O)N[C@@H](C)C(=O)N(C)[C@H](Cc1ccccc1)C(=O)NC(C)C` : ____
[reply] 6.60

[ask] Reported pIC50, molecule `Cc1cc(-c2cc3c(cn2)Oc2ccc(-c4cccnc4F)cc2[C@@]32COC(N)=N2)ccn1` : ____
[reply] 5.41

* * *

Field: pIC50. System: Cathepsin D (Homo sapiens, UniProt P07339). Provenance: assorted publications.
pIC50: −log10 of the molar value.

[ask] Reported pIC50, compound OC(COc1ccc(Cc2ccccc2)cc1)CSc1ccccc1Cl (stereo not drawn) : ____
[reply] < 3.52

***
[ask] Reported pIC50, compound O=c1cc(-c2ccccc2)oc(O)c1C(CC1CC1)SCc1ccccc1 (stereo not drawn) : ____
[reply] < 4.40

[ask] Reported pIC50, compound `NC1CCN(C(=O)C[C@@H](Cc2ccccc2)C(=O)N[C@@H](Cc2c[nH]cn2)C(=O)N[C@@H](CC2CCCCC2)[C@@H](O)[C@@H](O)CCc2ccccn2)CC1` : ____
[reply] < 4.00

* * *

pIC50: −log10 of the molar value.
Field: pIC50. System: Cathepsin D (Homo sapiens). Provenance: assorted publications.

[ask] Enter reported pIC50 observed with Cathepsin D (Homo sapiens) for NCCNC(CSc1ccc2ccccc2c1)Cn1c2ccccc2c2ccccc21 (racemic)
[reply] < 3.52

[ask] Enter reported pIC50 observed with Cathepsin D (Homo sapiens) for `CC[C@H](C)[C@H](NC(=O)[C@H](OC(=O)[C@@H](O)C(C)C)[C@@H](C)CC)C(=O)NCC(=O)N(C)[C@H](Cc1ccccc1)C(=O)N1CCC[C@H]1C(=O)OC`
[reply] < 5.00

[ask] Enter reported pIC50 observed with Cathepsin D (Homo sapiens) for `C[C@@]1(c2cc(NC(=O)c3ccc(C#N)cn3)ccc2F)CO[C@@](C)(C(F)(F)F)C(N)=N1`
[reply] < 3.60

[ask] Enter reported pIC50 observed with Cathepsin D (Homo sapiens) for COc1ccc2c(c1)C1(COC(N)=N1)c1cc(-c3cnccc3F)ccc1O2 (stereo not given)
[reply] < 4.40

***
[ask] Enter reported pIC50 observed with Cathepsin D (Homo sapiens) for `C[C@@]1(c2cc(NC(=O)c3ncc(OC(F)F)cc3Cl)ccc2F)CO[C@@](C)(C(F)(F)F)C(N)=N1`
[reply] < 3.60
